EXPERIMENT_DESCRIPTION: Primary qHTS for delayed death inhibitors of the malarial parasite plastid, 96 hour incubation
SETTINGS: P. falciparum luciferase reporter growth; series mostly up to 28.7 µM
Screen size: about 320,000 compounds; about 22,000 (6.9%) were called active. Not shown: some 27% with an inconclusive outcome. Calls follow the shape of the dose curve; as a rule, active = well fitted inhibition curve with a large enough effect; inconclusive = small, poorly fitted or top-dose-only effect, or another doubt; inactive = no such curve, though single readings can be large or run the other way. Only a selection was taken, and actives are over-represented in it overall.
Possible outcomes: true (1) for active, false (0) for inactive

> print(dat)
                                    molecule  assigned.class
 1  COc1ccccc1NC(=O)CN1CCN(S(=O)(=O)c2ccc(Br)cc2)CC1       false (0)
 2          CCc1ccc[n+](-c2nc([O-])sc2C=O)c1       false (0)
 3  CCCCn1c(N)c(N(CC(C)C)C(=O)C2CSC3(C)CCC(=O)N23)c(=O)[nH]c1=O (stereo not given)       false (0)
 4  CCOc1ccccc1NC(=O)Cn1ncc2ccc([N+](=O)[O-])cc21       false (0)
 5  COc1ccc(Cl)cc1S(=O)(=O)N1CCC(O)(c2ccc(Cl)cc2)CC1       false (0)
 6  O=C(OCCN=C1NS(=O)(=O)c2ccccc21)c1cccc([N+](=O)[O-])c1       false (0)
 7           O=C(NC1CCCC1)c1cc(-c2ccccc2)on1       false (0)
 8  CC1CCN(S(=O)(=O)c2ccc3c(ccn3CC(=O)O)c2)CC1       false (0)
 9  CC(C)C(NC(=O)C1CCC(C(C)(C)C)CC1)C(=O)NCCCN1CCCCC1 (stereo not given)        true (1)
10  Cc1cccc(-c2c(NC(=O)c3ccco3)oc3ccc(Cl)cc3c2=O)c1       false (0)
